Can you tell me IC50 for the items I'm about to list?
tgt: pEGFR (Tyr1068) in PC-9 cells (Ex19Del) (Homo sapiens (Human), UniProt P00533, DEL746-750)
Sequence (P00533 other isoform, or with tags, fused parts or gaps del 746-750): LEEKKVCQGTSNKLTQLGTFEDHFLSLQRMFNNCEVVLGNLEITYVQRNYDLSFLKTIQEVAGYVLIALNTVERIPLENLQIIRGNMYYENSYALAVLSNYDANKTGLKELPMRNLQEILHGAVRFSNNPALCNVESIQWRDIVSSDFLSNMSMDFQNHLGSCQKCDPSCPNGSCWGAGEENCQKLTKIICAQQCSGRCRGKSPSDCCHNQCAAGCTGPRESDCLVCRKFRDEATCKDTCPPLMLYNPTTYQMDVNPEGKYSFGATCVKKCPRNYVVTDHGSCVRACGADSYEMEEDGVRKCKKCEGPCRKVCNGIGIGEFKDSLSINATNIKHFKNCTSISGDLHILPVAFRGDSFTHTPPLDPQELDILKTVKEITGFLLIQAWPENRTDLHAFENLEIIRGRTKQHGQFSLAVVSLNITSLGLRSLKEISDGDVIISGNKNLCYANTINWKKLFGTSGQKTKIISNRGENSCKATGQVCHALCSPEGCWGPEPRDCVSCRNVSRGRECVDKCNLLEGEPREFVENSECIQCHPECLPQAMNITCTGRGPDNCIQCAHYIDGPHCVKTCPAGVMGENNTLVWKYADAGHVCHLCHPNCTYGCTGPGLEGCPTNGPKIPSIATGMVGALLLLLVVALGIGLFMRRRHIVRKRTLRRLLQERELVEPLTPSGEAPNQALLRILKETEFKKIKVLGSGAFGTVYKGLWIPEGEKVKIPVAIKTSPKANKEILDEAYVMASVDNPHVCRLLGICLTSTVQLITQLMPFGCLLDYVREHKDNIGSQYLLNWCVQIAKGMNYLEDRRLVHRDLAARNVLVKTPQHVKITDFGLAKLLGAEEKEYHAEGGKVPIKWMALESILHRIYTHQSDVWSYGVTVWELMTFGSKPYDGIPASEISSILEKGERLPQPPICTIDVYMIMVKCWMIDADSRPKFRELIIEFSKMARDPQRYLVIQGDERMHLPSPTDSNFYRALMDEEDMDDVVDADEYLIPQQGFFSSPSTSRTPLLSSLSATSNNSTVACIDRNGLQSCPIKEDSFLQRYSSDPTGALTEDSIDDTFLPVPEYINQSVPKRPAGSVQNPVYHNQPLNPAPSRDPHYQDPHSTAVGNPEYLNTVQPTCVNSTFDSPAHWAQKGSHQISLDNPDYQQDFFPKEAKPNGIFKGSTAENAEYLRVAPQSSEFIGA
protocol_summary: PC-9 pEGFR AlphaLISA assay
Format: cell-based
cond: 4 hours incubation, p-EGFR (Tyr1068) AlphaLISA, read-out: Ext pEGFR_PC-9 Ex19Del IC50
Protocol: PC-9/A431 pEGFR AlphaLISA Assays Inhibitory effects of compounds were evaluated in cellular assays that measure level of intracellular phosphorylation of EGFR in PC-9 (ECACC, #90071810, Milipore/Sigma) and A431 cell lines (ATCC, CRL-1555) using AlphaLISA sureFire ultra p-EGFR (Tyr1068) assay kit (PerkinElmer, ALSU-PEGFR-A50K). […] On the next day, the plate was read the Envision using standard AlphaLisa settings. […]
Value expressed in nM; do not type the unit.

Entry COc1cc2ncnc(-c3cn(C)nc3-c3ccccc3)c2cc1OC(=O)N1CCNCC1(C)C [Example 86] — recorded IC50 = 5.8

Recorded IC50 (compound COc1cc2ncnc(-c3sc(C)nc3-c3ccccc3)c2nc1NC(=O)C1CC1 [Example 437] ): 4.2

Looking up COc1cc2ncnc(-c3cn(C)nc3-c3ccccc3)c2cc1NC(=O)c1ccccc1F [Example 198] , I found its IC50 recorded as 1.1

Entry CCn1cc(-c2ncnc3cc(OC)c(NC(=O)[C@@]45C[C@@H]4CN(C)C5)nc23)c(-c2ccc(F)cc2)n1 (single isomer, unassigned) [Example 398] , IC50 reported as 1.3

In plain terms, CCOc1cc2ncnc(-c3cn(C)nc3-c3ccccc3)c2nc1N1CC2(COC2)C1 [Example 175] has a documented IC50 of 1.2

Form field IC50, entry COc1cc2ncnc(-c3cn(C)nc3-c3ccccc3)c2cc1NC(=O)[C@H](C)CN(C)C (single isomer, unassigned) [Example 239] : 4

Lookup result for COc1cc2ncnc(-c3cn(CC4CC4)nc3-c3ccccc3)c2nc1NC(=O)[C@]12C[C@H]1CN(C)C2 (single isomer, unassigned) [Example 409] ; measured IC50: 0.8

For this compound ( COc1cc2ncnc(-c3cn(C)nc3-c3ccccc3)c2cc1NC(=O)c1cnn(C(C)C)c1 [Example 208] ), measured IC50 is 1.8

Reported IC50 for COc1cc2ncnc(-c3cn(C)nc3-c3ccccc3)c2cc1O[C@@H]1CCOC[C@H]1F [Example 18] was 4.3

###

tgt: EGFR (d746-750) (Homo sapiens (Human), UniProt P00533, DEL746-750)
Sequence (P00533 other isoform, or with tags, fused parts or gaps del 1-694/del 746-750 limits assumed): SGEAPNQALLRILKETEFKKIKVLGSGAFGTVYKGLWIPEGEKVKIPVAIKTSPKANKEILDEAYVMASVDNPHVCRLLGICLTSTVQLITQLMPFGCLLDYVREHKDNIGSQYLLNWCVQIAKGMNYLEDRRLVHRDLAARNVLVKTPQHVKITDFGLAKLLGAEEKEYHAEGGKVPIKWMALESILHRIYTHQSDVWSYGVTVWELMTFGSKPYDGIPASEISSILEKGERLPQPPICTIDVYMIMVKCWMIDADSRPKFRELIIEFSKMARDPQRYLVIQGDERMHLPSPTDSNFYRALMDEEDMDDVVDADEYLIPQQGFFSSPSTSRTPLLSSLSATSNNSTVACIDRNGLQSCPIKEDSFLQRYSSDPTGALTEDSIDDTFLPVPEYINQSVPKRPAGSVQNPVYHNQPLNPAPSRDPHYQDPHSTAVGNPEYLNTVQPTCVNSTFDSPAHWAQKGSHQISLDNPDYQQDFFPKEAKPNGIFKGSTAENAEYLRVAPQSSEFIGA
protocol_summary: Biochemical EGFR inhibition assay, EGFR (d746-750)
cond: Caliper mobility shift; 1.0 mM ATP or ATP Km; read-out: Enz EGFR_Exon19-del746-750 IC50
Description: Reactions proceeded until between 10% to 20% total peptides were phosphorylated at room temperature (25° C.) and were terminated with 35 mM 2,2′,2″,2″-(ethane-1,2-diyldinitrilo)tetraacetic acid (EDTA). Product was detected using the Caliper mobility shift detection method where the phosphorylated peptide (product) and substrate were electrophoretically separated and measured. Percent activity was plotted against log concentration of compound and points to generate an apparent IC50.
assay_endpoint: IC50 (nM)
Answer in nM, number only, no unit symbol.

The compound CCOc1cc2ncnc(-c3cn(C)nc3-c3ccccc3)c2nc1NC1CCOCC1 [Example 158] showed IC50 equal to 1.4

// sample COc1cc2ncnc(-c3cn(C)nc3-c3ccc(F)cc3F)c2nc1NC(=O)C12CC(C1)C2 [Example 421] , its IC50 was 1.8

Record summary for CCn1cc(-c2ncnc3cc(OC)c(NC(=O)[C@@]45COC[C@@H]4C5)cc23)c(-c2ccc(F)cc2)n1 [Example 334] : reported IC50 = 1.5

Form field IC50, entry COc1cc2ncnc(-c3cn(C)nc3-c3ccccc3)c2cc1NC(=O)[C@@H]1C[C@H]1C(F)(F)F [Example 286] : 1.6

Entry under test: COc1cc2ncnc(-c3cn(C)nc3-c3ccccc3)c2cc1NC(=O)[C@]1(C)CCCO1 (single isomer, unassigned) [Example 258] . Its IC50 was 0.9

The recorded IC50 for entry COc1cc2ncnc(-c3cn(C)nc3-c3ccccc3)c2cc1NC(=O)C1(C(F)(F)F)CC1 [Example 349] equals 1

# IC50 of CCn1cc(C(=O)Nc2cc3c(-c4cn(C)nc4-c4ccccc4)ncnc3cc2OC)cn1 [Example 219] = 1.1

Short answer for COc1cc2ncnc(-c3cn(C)nc3-c3ccccc3)c2cc1OC(=O)N1CCN(C)[C@H](C)[C@@H]1C [Example 98] : IC50 was 3.4

Given item COc1cc2ncnc(-c3cn(CC(F)F)nc3-c3ccccc3)c2nc1OC [Example 20] , the value recorded as its IC50 is 0.5
